- System: CCRIS mutagenicity, Ames/micronucleus/aberration tests
- assayName: CCRIS mutagenicity studies
- statedConditions: Test System: AMES SALMONELLA TYPHIMURIUM; Strain/Indicator: TA98; Metabolic Activation: NONE; Method: PREINCUBATION
Calls of active or inactive are those of the source. How the calls were made is not given here.
Valid outcomes are listed here; reply with one: 1 (active), 0 (inactive)

compound	className
CN[C@@H]1[C@H](O[C@H]2[C@H](O[C@H]3[C@H](O)[C@@H](O)[C@H](N=C(N)N)[C@@H](O)[C@@H]3N=C(N)N)O[C@@H](C)[C@]2(O)C=O)O[C@@H](CO)[C@H](O)[C@H]1O	0
OC1c2c(ccc3c2ccc2ccccc23)C2OC2C1O (stereo unspecified)	1
Nc1ccc(N)cc1	0

Moving on to the next compound.
What outcome does the record of this test show for CC1(C)S[C@@H]2[C@H](NC(=O)[C@H](N)c3ccccc3)C(=O)N2[C@H]1C(=O)O ?
0

====

- Tested on: CCRIS mutagenicity, Ames/micronucleus/aberration tests
- assayName: CCRIS mutagenicity studies
- statedConditions: Test System: AMES SALMONELLA TYPHIMURIUM; Strain/Indicator: TA98(1,8-DNP6); Metabolic Activation: NONE; Method: STANDARD PLATE
Activity calls are given as the source filed them. No rule for the calls is given here.
Valid outcomes are listed here; reply with one: 1 (active), 0 (inactive)

> print(dat)
                          compoundstructure  classname
1              COc1cccc(/C=C/c2ccc(N)cc2)c1          0
2  O=[N+]([O-])c1ccc2ccc3c([N+](=O)[O-])cccc3c2c1          1
3      Cc1cc2ncccc2c2nc(N=[N+]=[N-])n(C)c12          1

What outcome does the record of this test show for O=[N+]([O-])c1ccc2ccc3ccc([N+](=O)[O-])cc3c2c1 ?
1

What outcome does the record of this test show for COC(=O)c1cc(-c2ccc(N)c(C(=O)OC)c2)ccc1N ?
0

What outcome does the record of this test show for O=C1OCCN1N=Cc1ccc([N+](=O)[O-])o1 ?
1

====

- Test system: CCRIS mutagenicity, Ames/micronucleus/aberration tests
- assayName: CCRIS mutagenicity studies
- statedConditions: Test System: AMES SALMONELLA TYPHIMURIUM; Strain/Indicator: TA100; Metabolic Activation: NONE; Method: GAS EXPOSURE
The source made the active and inactive calls. No rule for the calls is given here.
Valid outcomes are listed here; reply with one: active, inactive

Please review the following examples before continuing.
> print(dat)
   compoundstructure                             targetofassay  classname
1              ClCCl  CCRIS mutagenicity, Ames/micronucleus/aberration tests     active
2            C=C(C)C  CCRIS mutagenicity, Ames/micronucleus/aberration tests   inactive
3               C#CC  CCRIS mutagenicity, Ames/micronucleus/aberration tests   inactive

Moving on to the next molecule.
What outcome does the record of this test show for FC(Cl)(Cl)Cl ?
inactive

====

- Tested on: CCRIS mutagenicity, Ames/micronucleus/aberration tests
- assayName: CCRIS mutagenicity studies
- statedConditions: Test System: AMES SALMONELLA TYPHIMURIUM; Strain/Indicator: TA1535; Metabolic Activation: HAMSTER, LIVER, S-9, AROCLOR 1254 (10%); Method: PREINCUBATION
The source made the active and inactive calls. The rule behind the calls is not given here.
Valid outcomes are listed here; reply with one: active, inactive

Please review the following examples before continuing.
> print(dat)
                              compound  classname
1  O=C1OC(=O)c2c(Br)c(Br)c(Br)c(Br)c21   inactive
2      COc1ccc(CN(CCN(C)C)c2ncccn2)cc1   inactive
3                            CCN(CC)CC   inactive

What outcome does the record of this test show for CC(=O)OCCC(C)C ?
inactive

What outcome does the record of this test show for CCCCOC(=O)c1ccccc1N ?
inactive

What outcome does the record of this test show for CCC(CO)[N+](=O)[O-] (stereo unspecified) ?
inactive

What outcome does the record of this test show for CN(C)c1ccc(N=Nc2ccccc2)cc1 ?
inactive

What outcome does the record of this test show for O=C(OCC1CO1)c1cccc(C(=O)OCC2CO2)c1 (stereo unspecified) ?
active

What outcome does the record of this test show for N#C/C(N)=C(/N)C#N ?
inactive

What outcome does the record of this test show for O=C(O)CN(CCN(CC(=O)O)CC(=O)O)CC(=O)O ?
inactive

What outcome does the record of this test show for O=C(Nc1ccc(Cl)cc1)Nc1ccc(Cl)c(Cl)c1 ?
inactive

What outcome does the record of this test show for C=CC(=O)OCCCC ?
inactive

What outcome does the record of this test show for O=C(O)c1cccc(Cl)c1 ?
inactive

What outcome does the record of this test show for FC(F)(F)C(Cl)Br (stereo unspecified) ?
inactive

What outcome does the record of this test show for CCN(CC)C(=O)c1cccc(C)c1 ?
inactive

What outcome does the record of this test show for N#CCBr ?
inactive
